Assay: Approximate solubility of Zileuton in various solvents/vehicles
Assay type: physicochemical
Settings: d-a-tocopheryl polyethylene glycol 1000 succinate, 50 °C, oil or lipid, vehicle d-a-tocopheryl polyethylene glycol 1000 succinate
Experimental: Solubility of Zileuton in Various Solvents Approximately solubility of the Zileuton was measured in different vehicles. Semi-soild and waxy solid excipients were melted and tested at 50° C. or 70° C.
quantity: solubility

// CC(c1cc2ccccc2s1)N(O)C(N)=O (racemic) [Zileuton] : solubility value = < 10000 µg/mL

###

Test: Approximate solubility of Zileuton in various solvents/vehicles
Assay type: physicochemical
Conditions: Glyceryl mono and di stearate, 70 °C, oil or lipid, vehicle Glyceryl mono and di stearate
quantity: solubility

// CC(c1cc2ccccc2s1)N(O)C(N)=O (racemic) : solubility value = 25 to 50 mg/mL

###

Experiment: Approximate solubility of Zileuton in various solvents/vehicles
Assay type: physicochemical
Conditions: Caprylocaproyl polyoxyl glycerides, 25 °C, oil or lipid, vehicle Caprylocaproyl polyoxyl glycerides
quantity: solubility

// CC(c1cc2ccccc2s1)N(O)C(N)=O (racemic) : solubility value = 40 to 66.7 mg/mL

###

Assay: Approximate solubility of Zileuton in various solvents/vehicles
Assay type: physicochemical
Conditions: Corn oil, 25 °C, oil or lipid, vehicle Corn oil
quantity: solubility

// CC(c1cc2ccccc2s1)N(O)C(N)=O (racemic) : solubility value = < 5000 µg/mL

###

Assay: Approximate solubility of Zileuton in various solvents/vehicles
Assay type: physicochemical
Conditions: 25 °C, pH 4, aqueous with cosolvent or surfactant or cyclodextrin, vehicle 20% 2-Hydroxypropyl-β-cyclodextrin in pH 4 sodium citrate buffer
quantity: solubility

// CC(c1cc2ccccc2s1)N(O)C(N)=O (racemic) : solubility value = 10 to 16.7 mg/mL

###

Assay: Approximate solubility of Zileuton in various solvents/vehicles
Type: physicochemical
Settings: Polyethylene glycol 300, 25 °C, organic solvent or mixture, vehicle Polyethylene glycol 300, 25° C.
quantity: solubility

// CC(c1cc2ccccc2s1)N(O)C(N)=O (racemic) : solubility value = 40 to 66.7 mg/mL

###

Assay: Approximate solubility of Zileuton in various solvents/vehicles
Assay type: physicochemical
Settings: Glyceryl monocaprate type I, 25 °C, oil or lipid, vehicle Glyceryl monocaprate type I
quantity: solubility

// CC(c1cc2ccccc2s1)N(O)C(N)=O (racemic) : solubility value = 8.3 to 12.5 mg/mL

###

Experiment: Approximate solubility of Zileuton in various solvents/vehicles
Format: physicochemical
Settings: Polyoxy ethylene sorbitan monostearate, 25 °C, organic solvent or mixture, vehicle Polyoxy ethylene sorbitan monostearate
quantity: solubility

// CC(c1cc2ccccc2s1)N(O)C(N)=O (racemic) : solubility value = 33.3 to 50 mg/mL

###

Experiment: Approximate solubility of Zileuton in various solvents/vehicles
Assay type: physicochemical
Conditions: Lauroyl polyoxyl-6 glycerides, 50 °C, oil or lipid, vehicle Lauroyl polyoxyl-6 glycerides
quantity: solubility

// CC(c1cc2ccccc2s1)N(O)C(N)=O (racemic) : solubility value = < 10000 µg/mL

###

Assay: Approximate solubility of Zileuton in various solvents/vehicles
Type: physicochemical
Conditions: Dimethyl acetamide, 25 °C, organic solvent or mixture, vehicle Dimethyl acetamide
quantity: solubility

// CC(c1cc2ccccc2s1)N(O)C(N)=O (racemic) [Zileuton] : solubility value = 66.7 to 100 mg/mL

###

Assay: Approximate solubility of Zileuton in various solvents/vehicles
Assay type: physicochemical
Conditions: Castor oil, 25 °C, oil or lipid, vehicle Castor oil
quantity: solubility

// CC(c1cc2ccccc2s1)N(O)C(N)=O (racemic) [Zileuton] : solubility value = < 5000 µg/mL
